Source: paper PMC10726135

# target: HNF4alpha2 (COS-7 nuclear extract) (Homo sapiens, UniProt P41235 1-474)
# Sequence: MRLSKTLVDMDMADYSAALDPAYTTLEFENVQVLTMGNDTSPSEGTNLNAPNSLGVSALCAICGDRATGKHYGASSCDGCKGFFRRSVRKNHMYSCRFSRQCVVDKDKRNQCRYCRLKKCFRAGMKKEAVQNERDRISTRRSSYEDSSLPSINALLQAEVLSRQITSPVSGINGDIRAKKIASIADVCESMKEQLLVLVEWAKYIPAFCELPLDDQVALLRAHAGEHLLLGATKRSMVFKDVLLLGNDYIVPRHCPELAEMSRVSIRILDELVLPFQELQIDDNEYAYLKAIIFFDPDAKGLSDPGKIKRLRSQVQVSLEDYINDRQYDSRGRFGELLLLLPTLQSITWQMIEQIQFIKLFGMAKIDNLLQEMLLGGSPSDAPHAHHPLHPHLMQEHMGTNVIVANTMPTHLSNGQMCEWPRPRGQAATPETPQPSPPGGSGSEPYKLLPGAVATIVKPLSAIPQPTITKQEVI
# assay method text: protein-binding microarray; COS-7 nuclear extract on double-stranded Agilent 4x180k PBM; binding buffer, salt, pH and temperature not given in the material; high values mean tight binding
# test parameters: chain copies: 2; label: 3' end of strand 1 on the slide; dsDNA, one strand shown
Over roughly 18,000 sequences, “log2 normalized intensity” has its median near 0.39; the highest 2% begin near 6.6. Many of the other results were omitted from the sample, so the highest values are more common in it than they were.
Give measured binding signal for each item. Keep answers brief.
Numbers only, in log2 normalized intensity.

Data request: Identify measured binding signal associated with GTATCAGGGCTCAGGAATGTGGGGTCAACAGCCTAGGGAGATTAGAGTATCGGTCGA
Data returned: 2.99

Data request: Identify measured binding signal associated with AAAGACTTGCTCATTGATGAGTGACCTTTGGCCTAGGGAGATTAGAGTATCGGTCGA
Data returned: 6.15

Data request: Identify measured binding signal associated with CTACTACTTGACCTTTGAAACATATCCAGAGCCTAGGGAGATTAGAGTATCGGTCGA
Data returned: 5.48

Report binding signal for every entry below.
1. GATGAGTGACCTTTGACCTCAGAGAGCCGGGCCTAGGGAGATTAGAGTATCGGTCGA
2. TTGTTCAATAAGCAATACATTGAACTTTGAGCCTAGGGAGATTAGAGTATCGGTCGA
3. AGGAATGAGACATGAATCCATCCCACCTCAGCCTAGGGAGATTAGAGTATCGGTCGA

Data returned:
[9.56, 7.41, -0.775]

---

# target: HNF4alpha2 (COS-7 nuclear extract) (Homo sapiens, UniProt P41235 1-474)
# Sequence: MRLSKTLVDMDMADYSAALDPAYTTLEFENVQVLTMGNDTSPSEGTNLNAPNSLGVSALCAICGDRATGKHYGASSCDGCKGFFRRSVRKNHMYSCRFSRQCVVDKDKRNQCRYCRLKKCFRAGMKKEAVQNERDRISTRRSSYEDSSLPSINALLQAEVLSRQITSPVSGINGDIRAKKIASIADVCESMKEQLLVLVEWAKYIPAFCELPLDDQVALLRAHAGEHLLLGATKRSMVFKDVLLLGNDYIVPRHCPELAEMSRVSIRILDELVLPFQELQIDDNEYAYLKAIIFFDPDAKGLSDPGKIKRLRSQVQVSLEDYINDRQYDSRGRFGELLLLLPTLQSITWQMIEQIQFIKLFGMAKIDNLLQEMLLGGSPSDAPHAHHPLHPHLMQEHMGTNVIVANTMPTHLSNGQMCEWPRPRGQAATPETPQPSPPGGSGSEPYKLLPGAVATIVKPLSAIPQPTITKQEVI
# assay method text: protein-binding microarray; COS-7 nuclear extract on double-stranded Agilent 4x180k PBM; binding buffer, salt, pH and temperature not given in the material; high values mean tight binding
# test parameters: chain copies: 2; label: 3' end of strand 1 on the slide; dsDNA, one strand shown
Over roughly 18,000 sequences, “log2 normalized intensity” has its median near 0.39; the highest 2% begin near 6.6. The full list was thinned out, with the highest values kept by preference.
parameter measured: binding signal (log2 normalized intensity)
Numbers only, in log2 normalized intensity.

Data request: Identify measured binding signal associated with CCTCCATTAACTAACCTTTGAACCAGATGGGCCTAGGGAGATTAGAGTATCGGTCGA
Data returned: 4.77

Report binding signal for every entry below.
1. AAGTGGTATCCTGCAGTCAGTCTGATTGGTGCCTAGGGAGATTAGAGTATCGGTCGA
2. GGTCCTAAGACTAACCTTTGACCATCCACGGCCTAGGGAGATTAGAGTATCGGTCGA
3. AGTGAACTCAAAGAAAAGTTATGTTGGGCAGCCTAGGGAGATTAGAGTATCGGTCGA

Data returned:
1. 0.556
2. 5.96
3. 1.17

---

# target: HNF4alpha2 (COS-7 nuclear extract) (Homo sapiens, UniProt P41235 1-474)
# Sequence: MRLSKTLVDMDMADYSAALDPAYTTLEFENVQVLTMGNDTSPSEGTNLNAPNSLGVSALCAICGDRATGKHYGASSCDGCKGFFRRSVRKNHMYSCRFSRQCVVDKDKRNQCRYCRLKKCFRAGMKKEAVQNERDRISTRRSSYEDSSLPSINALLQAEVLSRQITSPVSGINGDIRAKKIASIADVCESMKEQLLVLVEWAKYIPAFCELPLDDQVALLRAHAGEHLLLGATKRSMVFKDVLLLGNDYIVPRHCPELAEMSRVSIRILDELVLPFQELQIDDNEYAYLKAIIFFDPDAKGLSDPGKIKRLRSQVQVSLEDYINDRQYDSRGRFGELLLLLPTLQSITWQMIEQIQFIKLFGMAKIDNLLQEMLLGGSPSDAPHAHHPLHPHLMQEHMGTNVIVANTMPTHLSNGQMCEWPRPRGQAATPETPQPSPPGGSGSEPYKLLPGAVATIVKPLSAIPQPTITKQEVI
# assay method text: protein-binding microarray; COS-7 nuclear extract on double-stranded Agilent 4x180k PBM; binding buffer, salt, pH and temperature not given in the material; high values mean tight binding
# test parameters: chain copies: 2; label: 3' end of strand 1 on the slide; dsDNA, one strand shown
The full ranking holds about 18,000 sequences; the median of “log2 normalized intensity” is about 0.39, and the highest 2% start at about 6.6. Only a selection was taken, and the highest values are over-represented in it overall.
Outcome label depends on binding signal relative to 3 log2 normalized intensity: at/above gives criterion met, below gives criterion not met.

Data request: // inclusive: binding signal at least 3 log2 normalized intensity? input: GACTTTGAACTTCATGTGTGGTGCAGATTCGCCTAGGGAGATTAGAGTATCGGTCGA
Data returned: criterion not met

Data request: // inclusive: binding signal at least 3 log2 normalized intensity? input: CATGCTCTTGGAATGTTGAACCTTTCTTTGGCCTAGGGAGATTAGAGTATCGGTCGA
Data returned: criterion not met

Data request: // inclusive: binding signal at least 3 log2 normalized intensity? input: TCTTGGAATGTTGAACCTTTCTTTGTCTTTGCCTAGGGAGATTAGAGTATCGGTCGA
Data returned: criterion not met

Data request: // inclusive: binding signal at least 3 log2 normalized intensity? input: TGATAGCCATCTGGTGGACTTTGCTCTGCTGCCTAGGGAGATTAGAGTATCGGTCGA
Data returned: criterion met

Data request: // inclusive: binding signal at least 3 log2 normalized intensity? input: TTCTGCCTTATCAGCGGCCCTGTGCTGCCCGCCTAGGGAGATTAGAGTATCGGTCGA
Data returned: criterion not met

Data request: // inclusive: binding signal at least 3 log2 normalized intensity? input: TCTTTCAGTGTTGACCTTTGAACATTTCTTGCCTAGGGAGATTAGAGTATCGGTCGA
Data returned: criterion met

Data request: // inclusive: binding signal at least 3 log2 normalized intensity? input: TTGGCTAAAGTCCAAATTCCTTGGAATACAGCCTAGGGAGATTAGAGTATCGGTCGA
Data returned: criterion met

Data request: // inclusive: binding signal at least 3 log2 normalized intensity? input: AAGGATCAAGGACCTGCTCTGGGGCTACCTGCCTAGGGAGATTAGAGTATCGGTCGA
Data returned: criterion not met

Data request: // inclusive: binding signal at least 3 log2 normalized intensity? input: AGGAGTGTCTTTCTCCTTGAACACAGTGTTGCCTAGGGAGATTAGAGTATCGGTCGA
Data returned: criterion not met

Data request: // inclusive: binding signal at least 3 log2 normalized intensity? input: CATGTGGGTCCAAAGAACATTGCATTCCTTGCCTAGGGAGATTAGAGTATCGGTCGA
Data returned: criterion not met

---

Give measured binding signal for each item. Keep answers brief.
# target: HNF4alpha2 (COS-7 nuclear extract) (Homo sapiens, UniProt P41235 1-474)
# Sequence: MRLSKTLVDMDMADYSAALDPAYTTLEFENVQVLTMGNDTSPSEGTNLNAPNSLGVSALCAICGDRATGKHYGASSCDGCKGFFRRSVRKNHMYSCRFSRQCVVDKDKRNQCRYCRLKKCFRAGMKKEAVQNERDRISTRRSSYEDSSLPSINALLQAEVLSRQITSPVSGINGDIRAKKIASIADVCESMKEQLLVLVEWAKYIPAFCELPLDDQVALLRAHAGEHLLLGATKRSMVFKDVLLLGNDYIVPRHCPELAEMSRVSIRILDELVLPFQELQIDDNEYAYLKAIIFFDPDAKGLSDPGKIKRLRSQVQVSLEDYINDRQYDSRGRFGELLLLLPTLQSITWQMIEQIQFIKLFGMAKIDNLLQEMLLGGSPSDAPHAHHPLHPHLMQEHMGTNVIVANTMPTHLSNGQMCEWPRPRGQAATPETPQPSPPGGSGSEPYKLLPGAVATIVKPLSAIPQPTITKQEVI
# assay method text: protein-binding microarray; COS-7 nuclear extract on double-stranded Agilent 4x180k PBM; binding buffer, salt, pH and temperature not given in the material; high values mean tight binding
# test parameters: chain copies: 2; label: 3' end of strand 1 on the slide; dsDNA, one strand shown
Over roughly 18,000 sequences, “log2 normalized intensity” has its median near 0.39; the highest 2% begin near 6.6. This excerpt belongs to a sample that is enriched for the highest values.
One number for each entry, in log2 normalized intensity.

// below: answered sequences
Data request: Identify measured binding signal associated with ATAGCAAAAGTGACCTTTGCTCCAGTTCCCGCCTAGGGAGATTAGAGTATCGGTCGA
Data returned: 7.8

Data request: Identify measured binding signal associated with GTTGGACTTTGGACCTTTGTGTGTGTGTGTGCCTAGGGAGATTAGAGTATCGGTCGA
Data returned: 7.93

Data request: Identify measured binding signal associated with CACTGGGCTGATGACCTTTGACTGAGATGGGCCTAGGGAGATTAGAGTATCGGTCGA
Data returned: 5.32

Report binding signal for every entry below.
1. CTGCCAAAGCTCACAGATGTGGAATGAAACGCCTAGGGAGATTAGAGTATCGGTCGA
2. ACTTTGGACCTTTGTGTGTGTGTGTGTGTGGCCTAGGGAGATTAGAGTATCGGTCGA
3. CTGATTTAGCTATTTGACCTTCGGCCTCAAGCCTAGGGAGATTAGAGTATCGGTCGA
4. AGAATCATCTTTGAGCTGGATGACCTTTGTGCCTAGGGAGATTAGAGTATCGGTCGA
5. ACACAATATTATGTTTTGTTATCTGTGCCAGCCTAGGGAGATTAGAGTATCGGTCGA
6. TTTTTTTTTTGAGATGGAATCTTGCCCTGTGCCTAGGGAGATTAGAGTATCGGTCGA

Data returned:
-0.0699
3.6
8.16
7.46
1.17
3.18

Report binding signal for every entry below.
1. GGGCGTGTGTTAGACTTTGGACCTGGCCTGGCCTAGGGAGATTAGAGTATCGGTCGA
2. TTGAGCTGGATGACCTTTGTCCTGGCACAAGCCTAGGGAGATTAGAGTATCGGTCGA
3. TGAACAATTGATTTATAGCCTTTTTGCCCAGCCTAGGGAGATTAGAGTATCGGTCGA

Data returned:
1. 7.25
2. 7.13
3. 1.29

Report binding signal for every entry below.
1. AAGAGTCAAAGGGCAAAGGAATAAAATAGCGCCTAGGGAGATTAGAGTATCGGTCGA
2. TGACAACTGAATGTGACCTTTTGGACCACAGCCTAGGGAGATTAGAGTATCGGTCGA
3. AAAACATATTTGCATAATGGAGCAAAGGTCGCCTAGGGAGATTAGAGTATCGGTCGA

Data returned:
1. -0.272
2. 6.82
3. 5.4

Report binding signal for every entry below.
1. TATGACCTTTGCTTTTCAAGATTTTACCTAGCCTAGGGAGATTAGAGTATCGGTCGA
2. ATGACTCCAAAGTTCAAACTCTGAAAGCACGCCTAGGGAGATTAGAGTATCGGTCGA
3. CAAAGCATAGCAAGAGTGACCTTTGCTCCAGCCTAGGGAGATTAGAGTATCGGTCGA
4. ACTGAATGTGACCTTTTGGACCACAGAGTGGCCTAGGGAGATTAGAGTATCGGTCGA
5. TGGCTGGGCCCTGACCTCAAGTGACCTTTGGCCTAGGGAGATTAGAGTATCGGTCGA
6. TCCTGATCTTTGACCTGGAGCATGACCCTTGCCTAGGGAGATTAGAGTATCGGTCGA
7. ATGACCTTTGACTGAGATGGGAGCAGTGCTGCCTAGGGAGATTAGAGTATCGGTCGA
8. TCCTCTCAAAGTCCACCCGGCCAGCAGATGGCCTAGGGAGATTAGAGTATCGGTCGA

Data returned:
1. 2.14
2. 2.34
3. 8.97
4. 5.39
5. 7.17
6. 4.86
7. 2.23
8. 2.46

Report binding signal for every entry below.
1. CCTGCATATCCTGACTGCTGACCTTTAAGCGCCTAGGGAGATTAGAGTATCGGTCGA
2. GTGACCTTTGCTCCAGTTCCCAATAAGTTGGCCTAGGGAGATTAGAGTATCGGTCGA
3. AGATAGCATTCCAAGAGAGCAAAGTGCTTTGCCTAGGGAGATTAGAGTATCGGTCGA

Data returned:
[4.85, 4.19, 0.587]

Report binding signal for every entry below.
1. ATCGCCCTTTGAGGAGGCCTTTCCTGACCCGCCTAGGGAGATTAGAGTATCGGTCGA
2. TGACCTTTGTCCTGGCACAACTGGATGGTGGCCTAGGGAGATTAGAGTATCGGTCGA
3. AAGTTGGAATTTGGGTGATCCTGGTAGCAGGCCTAGGGAGATTAGAGTATCGGTCGA
4. CTGAATAAAACAAACTCATTTTGATCTTTGGCCTAGGGAGATTAGAGTATCGGTCGA

Data returned:
1. 2.78
2. 5
3. 0.0957
4. 2.24
